Test: total protein half-life in vivo (active degradation + dilution); higher = more stable protein
Details: wild type E. coli NCM3722; growth: C-lim chemostat; doubling time 3 h
property_label: total protein half-life in vivo (h)
Express your answer in h, writing the number without its unit.

Example cases with answers are listed next.
MSKLFWAMLSFITRLPVPRRWSQGLDFEHYSRGIITFPLIGLLLGAISGLVFMVLQAWCGAPLAALFSVLVLVLMTGGFHLDGLADTCDGVFSARSRDRMLEIMRDSRLGTHGGLALIFVVLAKILVLSELALRGESILASLAAACAVSRGTAALLMYRHRYAREEGLGNVFIGKIDGRQTCVTLGLAAIFAAVLLPGMHGVAAMVVTMVAIFILGQLLKRTLGGQTGDTLGAAIELGELVFLLALL
3.48
MNEFFPLASAAGMTVGLAVCALIVGLALAMFFAVWESAKWRPVAWAGSALVTILRGLPEILVVLFIYFGSSQLLLTLSDGFTINLGFVQIPVQMDIENFDVSPFLCGVIALSLLYAAYASQTLRGALKAVPVGQWESGQALGLSKSAIFFRLVMPQMWRHALPGLGNQWLVLLKDTALVSLISVNDLMLQTKSIATRTQEPFTWYIVAAAIYLVITLLSQYILKRIDLRATRFERRPS [P0AE34]
2.92

Now look at this one.
Would you mind telling me what total protein half-life in vivo value was observed for MNSCDFRVFLQEFGTTVHLSLPGSVSEKERLLLKLLMQGMSVTEISQYRNRSAKTISHQKKQLFEKLGIQSDITFWRDIFFQYNPEIISATGSNSHRYINDNHYHHIVTPEAISLALENHEFKPWIQPVFCAQTGVLTGCEVLVRWEHPQTGIIPPDQFIPLAESSGLIVIMTRQLMKQTADILMPVKHLLPDNFHIGINVSAGCFLAAGFEKECLNLVNKLGNDKIKLVLELTERNPIPVTPEARAIFDSLHQHNITFALDDFGTGYATYRYLQAFPVDFIKIDKSFVQMASVDEISGHIVDNIVELARKPGLSIVAEGVETQEQADLMIGKGVHFLQGYLYSPPVPGNKFISEWVMKAGG ?
3.35

----------
Experiment: total protein half-life in vivo (active degradation + dilution); higher = more stable protein
Settings: E. coli NCM3722 delta-clpP delta-lon delta-hslV; growth: N-lim chemostat; doubling time 6 h
Decision: total protein half-life in vivo compared against 5 h; not below it gives Criterion met, below it gives Criterion not met.

MCEGYVEKPLYLLIAEWMMAENRWVIAREISIHFDIEHSKAVNTLTYILSEVTEISCEVKMIPNKLEGRGCQCQRLVKVVDIDEQIYARLRNNSREKLVGVRKTPRIPAVPLTELNREQKWQMMLSKSMRR [P0AE58]
Criterion not met
MMKKFIAPLLALLVSGCQIDPYTHAPTLTSTDWYDVGMEDAISGSAIKDDDAFSDSQADRGLYLKGYAEGQKKTCQTDFTYARGLSGKSFPASCNNVENASQLHEVWQKGADENASTIRLN
Criterion not met
MATYLIGDVHGCYDELIALLHKVEFTPGKDTLWLTGDLVARGPGSLDVLRYVKSLGDSVRLVLGNHDLHLLAVFAGISRNKPKDRLTPLLEAPDADELLNWLRRQPLLQIDEEKKLVMAHAGITPQWDLQTAKECARDVEAVLSSDSYPFFLDAMYGDMPNNWSPELRGLGRLRFITNAFTRMRFCFPNGQLDMYSKESPEEAPAPLKPWFAIPGPVAEEYSIAFGHWASLEGKGTPEGIYALDTGCCWGGTLTCLRWEDKQYFVQPSNRHKDLGEAAAS
Criterion not met
MNNLPLLNDLRVFMLVARRAGFAAVAEELGVSPAFVSKRIALLEQTLNVVLLHRTTRRVTITEEGERIYEWAQRILQDVGQMMDELSDVRQVPQGMLRIISSFGFGRQVVAPALLALAKAYPQLELRFDVEDRLVDLVNEGVDLDIRIGDDIAPNLIARKLATNYRILCASPEFIAQHGAPKHLTDLSALPCLVIKERDHPFGVWQLRNKEGPHAIKVTGPLSSNHGEIVHQWCLDGQGIALRSWWDVSENIASGHLVQVLPEYYQPANVWAVYVSRLATSAKVRITVEFLRQYFAEHYPNFSLEHA
Criterion met
MNEFFPLASAAGMTVGLAVCALIVGLALAMFFAVWESAKWRPVAWAGSALVTILRGLPEILVVLFIYFGSSQLLLTLSDGFTINLGFVQIPVQMDIENFDVSPFLCGVIALSLLYAAYASQTLRGALKAVPVGQWESGQALGLSKSAIFFRLVMPQMWRHALPGLGNQWLVLLKDTALVSLISVNDLMLQTKSIATRTQEPFTWYIVAAAIYLVITLLSQYILKRIDLRATRFERRPS [P0AE34]
Criterion met
MSKLFWAMLSFITRLPVPRRWSQGLDFEHYSRGIITFPLIGLLLGAISGLVFMVLQAWCGAPLAALFSVLVLVLMTGGFHLDGLADTCDGVFSARSRDRMLEIMRDSRLGTHGGLALIFVVLAKILVLSELALRGESILASLAAACAVSRGTAALLMYRHRYAREEGLGNVFIGKIDGRQTCVTLGLAAIFAAVLLPGMHGVAAMVVTMVAIFILGQLLKRTLGGQTGDTLGAAIELGELVFLLALL
Criterion met

Now let's try a different one.
Does total protein half-life in vivo meet or surpass 5 h for MNSCDFRVFLQEFGTTVHLSLPGSVSEKERLLLKLLMQGMSVTEISQYRNRSAKTISHQKKQLFEKLGIQSDITFWRDIFFQYNPEIISATGSNSHRYINDNHYHHIVTPEAISLALENHEFKPWIQPVFCAQTGVLTGCEVLVRWEHPQTGIIPPDQFIPLAESSGLIVIMTRQLMKQTADILMPVKHLLPDNFHIGINVSAGCFLAAGFEKECLNLVNKLGNDKIKLVLELTERNPIPVTPEARAIFDSLHQHNITFALDDFGTGYATYRYLQAFPVDFIKIDKSFVQMASVDEISGHIVDNIVELARKPGLSIVAEGVETQEQADLMIGKGVHFLQGYLYSPPVPGNKFISEWVMKAGG ?
Criterion met

----------
# total protein half-life in vivo annotations
Experiment: total protein half-life in vivo (active degradation + dilution); higher = more stable protein
Conditions: E. coli NCM3722 delta-clpP delta-lon delta-hslV; growth: N-lim chemostat; doubling time 6 h
Express your answer in h, writing the number without its unit.

MMRIALFLLTNLAVMVVFGLVLSLTGIQSSSVQGLMIMALLFGFGGSFVSLLMSKWMALRSVGGEVIEQPRNERERWLVNTVATQARQAGIAMPQVAIYHAPDINAFATGARRDASLVAVSTGLLQNMSPDEAEAVIAHEISHIANGDMVTMTLIQGVVNTFVIFISRILAQLAAGFMGGNRDEGEESNGNPLIYFAVATVLELVFGILASIITMWFSRHREFHADAGSAKLVGREKMIAALQRLKTSYEPQEATSMMALCINGKSKSLSELFMTHPPLDKRIEALRTGEYLK
4.24

Would you mind telling me what total protein half-life in vivo value was observed for MGKAVIAIHGGAGAISRAQMSLQQELRYIEALSAIVETGQKMLEAGESALDVVTEAVRLLEECPLFNAGIGAVFTRDETHELDACVMDGNTLKAGAVAGVSHLRNPVLAARLVMEQSPHVMMIGEGAENFAFARGMERVSPEIFSTSLRYEQLLAARKEGATVLDHSGAPLDEKQKMGTVGAVALDLDGNLAAATSTGGMTNKLPGRVGDSPLVGAGCYANNASVAVSCTGTGEVFIRALAAYDIAALMDYGGLSLAEACERVVMEKLPALGGSGGLIAIDHEGNVALPFNTEGMYRAWGYAGDTPTTGIYREKGDTVATQ ?
4.9

----------
Test: total protein half-life in vivo (active degradation + dilution); higher = more stable protein
Settings: wild type E. coli NCM3722; growth: N-lim chemostat; doubling time 6 h
property_label: total protein half-life in vivo

MSKLFWAMLSFITRLPVPRRWSQGLDFEHYSRGIITFPLIGLLLGAISGLVFMVLQAWCGAPLAALFSVLVLVLMTGGFHLDGLADTCDGVFSARSRDRMLEIMRDSRLGTHGGLALIFVVLAKILVLSELALRGESILASLAAACAVSRGTAALLMYRHRYAREEGLGNVFIGKIDGRQTCVTLGLAAIFAAVLLPGMHGVAAMVVTMVAIFILGQLLKRTLGGQTGDTLGAAIELGELVFLLALL
5.87 h

Now look at this one.
Would you mind telling me what total protein half-life in vivo value was observed for MAEKRNIFLVGPMGAGKSTIGRQLAQQLNMEFYDSDQEIEKRTGADVGWVFDLEGEEGFRDREEKVINELTEKQGIVLATGGGSVKSRETRNRLSARGVVVYLETTIEKQLARTQRDKKRPLLHVETPPREVLEALANERNPLYEEIADVTIRTDDQSAKVVANQIIHMLESN [P0A6D7] ?
2.26 h

----------
# total protein half-life in vivo annotations
Assay: total protein half-life in vivo (active degradation + dilution); higher = more stable protein
Details: E. coli NCM3722 delta-lon; growth: N-lim chemostat; doubling time 6 h
Express your answer in h, writing the number without its unit.

Would you mind telling me what total protein half-life in vivo value was observed for MATYLIGDVHGCYDELIALLHKVEFTPGKDTLWLTGDLVARGPGSLDVLRYVKSLGDSVRLVLGNHDLHLLAVFAGISRNKPKDRLTPLLEAPDADELLNWLRRQPLLQIDEEKKLVMAHAGITPQWDLQTAKECARDVEAVLSSDSYPFFLDAMYGDMPNNWSPELRGLGRLRFITNAFTRMRFCFPNGQLDMYSKESPEEAPAPLKPWFAIPGPVAEEYSIAFGHWASLEGKGTPEGIYALDTGCCWGGTLTCLRWEDKQYFVQPSNRHKDLGEAAAS ?
3.56

Param item: MGKAVIAIHGGAGAISRAQMSLQQELRYIEALSAIVETGQKMLEAGESALDVVTEAVRLLEECPLFNAGIGAVFTRDETHELDACVMDGNTLKAGAVAGVSHLRNPVLAARLVMEQSPHVMMIGEGAENFAFARGMERVSPEIFSTSLRYEQLLAARKEGATVLDHSGAPLDEKQKMGTVGAVALDLDGNLAAATSTGGMTNKLPGRVGDSPLVGAGCYANNASVAVSCTGTGEVFIRALAAYDIAALMDYGGLSLAEACERVVMEKLPALGGSGGLIAIDHEGNVALPFNTEGMYRAWGYAGDTPTTGIYREKGDTVATQ
3.62

Param item: MAEKRNIFLVGPMGAGKSTIGRQLAQQLNMEFYDSDQEIEKRTGADVGWVFDLEGEEGFRDREEKVINELTEKQGIVLATGGGSVKSRETRNRLSARGVVVYLETTIEKQLARTQRDKKRPLLHVETPPREVLEALANERNPLYEEIADVTIRTDDQSAKVVANQIIHMLESN [P0A6D7]
4.2

Param item: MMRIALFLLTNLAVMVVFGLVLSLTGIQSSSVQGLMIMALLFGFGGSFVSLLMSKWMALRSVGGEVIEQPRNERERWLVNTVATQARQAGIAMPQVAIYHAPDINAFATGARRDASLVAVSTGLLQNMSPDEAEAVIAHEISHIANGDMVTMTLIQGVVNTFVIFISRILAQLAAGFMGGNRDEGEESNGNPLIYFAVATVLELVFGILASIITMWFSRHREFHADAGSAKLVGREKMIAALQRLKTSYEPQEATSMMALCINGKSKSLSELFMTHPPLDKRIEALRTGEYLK
4.77

Param item: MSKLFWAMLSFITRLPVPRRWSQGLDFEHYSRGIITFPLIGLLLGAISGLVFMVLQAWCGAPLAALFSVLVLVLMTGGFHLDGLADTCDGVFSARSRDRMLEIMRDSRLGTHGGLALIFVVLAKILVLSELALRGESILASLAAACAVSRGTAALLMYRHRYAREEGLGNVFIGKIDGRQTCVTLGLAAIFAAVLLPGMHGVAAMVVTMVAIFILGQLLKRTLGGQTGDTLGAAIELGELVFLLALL
6.52

Param item: MNEFFPLASAAGMTVGLAVCALIVGLALAMFFAVWESAKWRPVAWAGSALVTILRGLPEILVVLFIYFGSSQLLLTLSDGFTINLGFVQIPVQMDIENFDVSPFLCGVIALSLLYAAYASQTLRGALKAVPVGQWESGQALGLSKSAIFFRLVMPQMWRHALPGLGNQWLVLLKDTALVSLISVNDLMLQTKSIATRTQEPFTWYIVAAAIYLVITLLSQYILKRIDLRATRFERRPS [P0AE34]
6.45
